# credit: paper PMC10704080

procedure-summary: Cytotoxicity in HEK293 cells
Assay type: cell-based
reported-conditions: human

- compound: "O=C(CCCCCCCCCC[P+](c1ccccc1)(c1ccccc1)c1ccccc1)Nc1ccc(O)c(O)c1 [Compound 11e]"
  CC50 at 20 h: "22.4 µg/mL"
